molecular target: uPAR (Homo sapiens, UniProt Q03405); construct: these cells express high levels of unoccupied uPA receptors; endogenous in cells; host or cells: DU-145 human prostate cancer cells (intact cells, harvested with trypsin/EDTA); experiment: cell-based, competition radioligand binding assay (specific binding of c-[125I-Tyr24]-ATFp to DU-145 cells); conditions: radioligand c-[125I-Tyr24]-ATFp 3 nM (1.5 Kd), 4° C. for 90 min, duplicate tubes, 2-3 independent experiments
Sequence (Q03405 23-335): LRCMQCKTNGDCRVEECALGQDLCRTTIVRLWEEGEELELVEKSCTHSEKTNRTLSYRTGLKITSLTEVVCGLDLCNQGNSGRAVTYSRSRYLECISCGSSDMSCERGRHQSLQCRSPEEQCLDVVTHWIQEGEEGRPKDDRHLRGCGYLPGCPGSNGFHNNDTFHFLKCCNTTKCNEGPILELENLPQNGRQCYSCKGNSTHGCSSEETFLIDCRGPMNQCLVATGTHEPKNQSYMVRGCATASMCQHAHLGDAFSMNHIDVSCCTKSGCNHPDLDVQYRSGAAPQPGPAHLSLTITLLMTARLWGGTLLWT
# note: boundary value 70 nM maps to NO; IC50 below it maps to YES

Worked examples, 5 molecules total:
>  <smiles str>
CC(=O)N[C@@H](Cc1c[nH]c2ccccc12)C(=O)Nc1ccc(-c2ccc(C(N)=O)cc2)cc1

>  <category>
NO

$$$$
>  <smiles str>
O=C(Cc1c[nH]c2ccccc12)Nc1ccc(-c2ccc(C(=O)N[C@@H](Cc3ccccc3)C(=O)O)cc2)cc1

>  <category>
YES

$$$$
>  <smiles str>
CC(=O)N[C@@H](Cc1c[nH]c2ccccc12)C(=O)Nc1ccc(-c2cccc(C(=O)N[C@@H](Cc3ccccc3)C(=O)O)c2)cc1

>  <category>
NO

$$$$
>  <smiles str>
CC(=O)N[C@@H](Cc1c[nH]c2ccccc12)C(=O)Nc1ccc(-c2ccc(C(=O)N[C@@H](CC(=O)O)C(N)=O)cc2)cc1

>  <category>
YES

$$$$
>  <smiles str>
O=C(O)C[C@H](NC(=O)c1ccc(-c2ccc(NC(=O)[C@H](Cc3c[nH]c4ccccc34)NC(=O)OCC3c4ccccc4-c4ccccc43)cc2)cc1)C(=O)O

>  <category>
NO

$$$$

Data request: I'd appreciate it if you could check whether `O=C(N[C@@H](Cc1c[nH]c2ccccc12)C(=O)Nc1ccc(-c2ccc(C(=O)N[C@@H](Cc3c[nH]c4ccccc34)C(=O)O)cc2)cc1)OCC1c2ccccc2-c2ccccc21` has IC50 smaller than 70 nM.
Data returned: NO

Data request: Param item: `CC(=O)N[C@@H](Cc1ccccc1)C(=O)Nc1ccc(-c2ccc(C(=O)N[C@@H](Cc3ccccc3)C(=O)O)cc2)cc1`
Data returned: YES

Data request: Param item: `CC(=O)N[C@@H](Cc1c[nH]c2ccccc12)C(=O)Nc1cccc(-c2ccc(C(=O)N[C@@H](Cc3ccccc3)C(=O)O)cc2)c1`
Data returned: YES

Data request: Param item: `CC(=O)N[C@@H](Cc1c[nH]c2ccccc12)C(=O)Nc1ccc(-c2ccc(C(=O)N[C@@H](CC(=O)O)C(=O)O)cc2)cc1`
Data returned: YES

Data request: Param item: `CC(=O)N[C@@H](Cc1c[nH]c2ccccc12)C(=O)Nc1ccc(-c2ccc(C(=O)N[C@H](Cc3ccccc3)C(=O)O)cc2)cc1`
Data returned: YES

Data request: Param item: `CC(=O)N[C@@H](Cc1c[nH]c2ccccc12)C(=O)Nc1ccc(-c2ccc(C(=O)N[C@@H](Cc3ccccc3)C(=O)O)cc2)cc1`
Data returned: YES

Data request: Param item: `CC(=O)N[C@H](Cc1c[nH]c2ccccc12)C(=O)Nc1ccc(-c2ccc(C(=O)N[C@@H](Cc3ccccc3)C(=O)O)cc2)cc1`
Data returned: YES

Data request: Param item: `CC(=O)N[C@@H](Cc1c[nH]c2ccccc12)C(=O)Nc1ccc(C(=O)N[C@@H](Cc2ccccc2)C(=O)O)cc1`
Data returned: YES

Data request: Param item: `CC(=O)N[C@@H](CCC(N)=O)C(=O)Nc1ccc(-c2ccc(C(=O)N[C@@H](Cc3ccccc3)C(=O)O)cc2)cc1`
Data returned: YES

Data request: Param item: `CC(=O)N[C@@H](Cc1c[nH]c2ccccc12)C(=O)Nc1ccc(-c2ccc(C(=O)O)cc2)cc1`
Data returned: NO

Data request: Param item: `CC(=O)N[C@@H](Cc1c[nH]c2ccccc12)C(=O)Nc1ccc(-c2ccc(C(=O)NCCC(=O)O)cc2)cc1`
Data returned: YES
